Target: T1, recombinant human (rhu) PD1 (extracellular domain only) (human, UniProt Q15116 25-170)
T1 construct: extracellular domain; also called recombinant human PD1
T1 sequence (Q15116 25-170): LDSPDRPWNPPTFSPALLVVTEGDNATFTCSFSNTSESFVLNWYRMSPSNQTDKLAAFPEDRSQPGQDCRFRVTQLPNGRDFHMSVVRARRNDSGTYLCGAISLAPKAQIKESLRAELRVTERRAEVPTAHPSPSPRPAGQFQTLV
Test: SPR (Biacore 3000), antibody captured by anti-human IgG, PD1 as analyte
Protocol: Biosensor analysis was conducted at 25° C. in an HBS-EP buffer (10 mM HEPES, 150 mM NaCl, 3 mM EDTA, 0.005% polysorbate 20, 0.1% bovine serum albumin, pH 7.4) using a Biacore 3000 optical biosensor equipped with a CM5 sensor chip according to the manufacturer's general protocol. […] The association phase and dissociation phase for all analyte concentrations were monitored for 300 seconds and 1500 seconds, respectively, at a flow rate of 50 μL/min. […]
MEASURE_NAME: kon
Field: value (include unit after the number)

Which kon value is on record for anti-hPD1 antibody #10 (antibody, human IgG4, V domains shown, also called Anti-hPD1 #10; Anti-PD1 #10) VH: QVQLVQSGAEVKKPGASVKVSCKASGYTFTSYWMHWVRQAPGQGLEWMGEIDPFDSYTNYNQKFKGRVTMTIDKSTNTVYMELSSLGSEDTAVYYCARPGYTYGGMDFWGQGTLVTVSS VL: DIVMTQSPDSLAVSLGERATINCRSSQSLFISGNQKNYLAWYQQKPGQPPKLLIYGASTRDSGVPDRFSGSGSGTDFTLTISSLQAEDVAVYYCQNNHYYPYTFGGGTKVEIK ?
78000 M⁻¹ s⁻¹

Data origin: patent US20190276542A1
